This section presents molecules with their documented activation values.
# System: DAF-12 nuclear receptor (Haemonchus contortus)
# test_name: hcDAF-12 driven luciferase reporter activation – cell-based, luminescence, HEK293, lit1-tk-luc reporter, primary screen (AID 652067);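 note: 100% = response to 3 µM Δ7-dafachronic acid high control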
# assay_conditions: HEK293 hcDAF-12 lit1-tk-luc reporter, at 6.8 µM, hits give high values, 0% DMSO, 100% Δ7-dafachronic acid
Among all 370,000 compounds or so, about 5,400 (1.5%) were called active. The list comes from a sample in which actives are over-represented; it also holds close analogues and randomly drawn compounds.
measured_endpoint: activation (%)

# molecule, study_system, reported_measurement
records = [
    ("O=C(CSc1nnnn1C1CCCC1)Nc1ccc2c(c1)OCCO2", "DAF-12 nuclear receptor (Haemonchus contortus)", 1.27),
    ("CC(C)n1c(NCc2c[nH]c3ccccc23)nc2ccccc21", "DAF-12 nuclear receptor (Haemonchus contortus)", 1.49),
    ("CC(=O)c1ccc(NC(=O)Cn2c(=O)oc3ccccc32)cc1", "DAF-12 nuclear receptor (Haemonchus contortus)", -1.53),
    ("CCOC(=O)[C@]12CCCC3=C1N(CCC3)C(=O)[C@@H](CC(=O)N1CCSCC1)C2", "DAF-12 nuclear receptor (Haemonchus contortus)", -2.29),
    ("COC(=O)c1cc(C(=O)OC)cc(N2C(=O)CC(N3CCN(c4ccccc4)CC3)C2=O)c1 (stereo not given)", "DAF-12 nuclear receptor (Haemonchus contortus)", 0.25),
    ("Cn1c(=O)c(C(=O)Nc2ncccn2)c(O)c2ccccc21", "DAF-12 nuclear receptor (Haemonchus contortus)", 9.87),
    ("CCCCCCCCN1C(=O)[C@@H](CC(=O)NCc2ccccc2)C[C@@]2(C(=O)OC)C1=C[C@H](C(C)(C)C)O[C@@H]2C", "DAF-12 nuclear receptor (Haemonchus contortus)", 1.65),
    ("COc1ccc(-n2c(SCC(=O)Nc3ccc4c(c3)OCCO4)nnc2-c2ccc(Cl)cc2)cc1", "DAF-12 nuclear receptor (Haemonchus contortus)", -1.21),
    ("CCC(=O)Nc1ccc2c(c1)C(=O)N(C)[C@@H]1CC[C@@H](CC(=O)NCCc3ccccc3)O[C@H]1CO2", "DAF-12 nuclear receptor (Haemonchus contortus)", 0.81),
    ("C=CCn1c(=O)c(C(=O)Nc2ncccc2O)c(O)c2ccccc21", "DAF-12 nuclear receptor (Haemonchus contortus)", -0.68),
    ("Nc1nc2c(ncn2[C@@H]2O[C@H](C(=O)N[C@@H](Cc3ccccc3)C(=O)NCc3ccccc3)[C@@H](O)[C@H]2O)c(=O)[nH]1", "DAF-12 nuclear receptor (Haemonchus contortus)", 1.55),
    ("Nc1nonc1-n1nnc(C(=O)N/N=C/c2ccc(Cl)cc2)c1-c1ccc2c(c1)OCO2", "DAF-12 nuclear receptor (Haemonchus contortus)", 0.66),
    ("Cc1noc(C)c1/C=N/Nc1ccc2ccccc2n1", "DAF-12 nuclear receptor (Haemonchus contortus)", 7.4),
    ("COC(=O)C1=NN(c2ccccc2)C2C(=O)N(c3ccccc3OC)C(=O)C12 (stereo not given)", "DAF-12 nuclear receptor (Haemonchus contortus)", 9.57),
    ("CC(C)[C@H]1COCCS(=O)(=O)N1Cc1ccccc1-c1cccc2c1sc1ccccc12", "DAF-12 nuclear receptor (Haemonchus contortus)", 1.38),
    ("CC(C)(C)C(c1nc2ccccc2[nH]1)n1c(Cc2csc3ccccc23)nc2ccccc21 (stereo not given)", "DAF-12 nuclear receptor (Haemonchus contortus)", 6.12),
    ("CN(CCO)c1ccc(/C=N/Nc2nncc3ccccc23)cc1", "DAF-12 nuclear receptor (Haemonchus contortus)", 5.57),
    ("C(=N\\Nc1ccc2ccccc2n1)/c1ccc2c(c1)OCO2", "DAF-12 nuclear receptor (Haemonchus contortus)", 7.26),
    ("CCC(c1nc2ccccc2[nH]1)n1c(=O)c(-c2cccs2)nc2ccccc21 (stereo not given)", "DAF-12 nuclear receptor (Haemonchus contortus)", -1.27),
    ("COc1ccc(OC)c(NC(=O)Cn2c(=O)oc3ccccc32)c1", "DAF-12 nuclear receptor (Haemonchus contortus)", -1.37),
]
